Assay: Plasma protein binding assay, mouse plasma (mPPB)
Assay type: in vitro ADME
Settings: 5 μM, equilibrium dialysis 4 hours at 37° C.
Description: Plasma Protein Binding Assay The plasma protein binding was determined by the equilibrium dialysis method. A known concentration of compound (5 μM) in previously frozen human or mouse plasma (Sera Labs) was dialysed against phosphate buffer using a RED device (Life Technologies) for 4 hours at 37° C. The concentration of compound in the protein containing (PC) and protein free (PF) sides of the dialysis membrane were determined by LC-MS/MS and the % free compound was determined by equation 4. […]

{"molecule": "O=C(Nc1cc(Oc2ccc3c(c2)CC(c2nc(-c4ccccc4)c[nH]2)CO3)ccn1)C1(F)CC1 (stereo not shown) [Compound 138]", "readout_qualifier": "<", "mPPB (% free)": 0.1}
{"molecule": "O=C1CCc2c(Oc3ccc4c(c3)CC(c3nc5ccncc5[nH]3)CO4)ccnc2N1 (stereo not shown) [Compound 134]", "readout_qualifier": "=", "mPPB (% free)": 9.5}
{"molecule": "O=C(NC1CC1)c1cc(Oc2ccc3c(c2)CC(c2nc(-c4ccccc4)c[nH]2)CO3)ccn1 (stereo not shown) [Compound 158]", "readout_qualifier": "=", "mPPB (% free)": 0.2}
{"molecule": "CC(C)CCc1c[nH]c(C2COc3ccc(Oc4ccnc5c4CCC(=O)N5)cc3C2)n1 (stereo not shown) [Compound 116]", "readout_qualifier": "=", "mPPB (% free)": 0.23}
{"molecule": "O=C(Nc1cc(Oc2ccc3c(c2)CC(c2nc(-c4ccc(F)cc4)c[nH]2)CO3)ccn1)C1CC1 (stereo not shown) [Compound 155]", "readout_qualifier": "=", "mPPB (% free)": 0.1}
{"molecule": "c1ccc(-c2c[nH]c(C3COc4ccc(Oc5ccnc(Nc6nccs6)c5)cc4C3)n2)cc1 (stereo not shown) [Compound 141]", "readout_qualifier": "=", "mPPB (% free)": 0.5}
{"molecule": "O=C1CCc2c(Oc3ccc4c(c3)CC(c3nc(-c5ccnc(C(F)(F)F)c5)c[nH]3)CO4)ccnc2N1 (stereo not shown) [Compound 8]", "readout_qualifier": "=", "mPPB (% free)": 1.1}
